B1: Twister Ribozyme (parent)
chain: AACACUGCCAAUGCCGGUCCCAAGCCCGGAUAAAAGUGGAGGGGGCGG

# Variants of: B1
# protocol description: self-cleavage, relative activity (ratio to wild type); higher = more cleavage; co-transcriptional
Decide by self-cleavage: equal to or exceeding 0.2 means true (1), less means false (0).

Exam item: Test whether the variant A35U U37G records self-cleavage of 0.2 or higher.
Marked response: true (1)

Exam item: For G13U G47C then?
Marked response: false (0)

Exam item: Same question for A2G C27A please.
Marked response: false (0)

Exam item: // repeat for C20G A34C and report
Marked response: false (0)

Exam item: Here is the next variant: A1G A30G
Marked response: true (1)

Exam item: How about A4U A10C ?
Marked response: false (0)

Exam item: Now this one: A4U C46A
Marked response: false (0)

Exam item: Next variant: C15A G17U
Marked response: false (0)

Exam item: Next variant: G29A A34G
Marked response: true (1)

Exam item: Now give it for G17C G36U too.
Marked response: false (0)

Exam item: What do you have for A4C C15U ?
Marked response: true (1)
